- Target Or Test System: recombinant human SAE enzyme (Homo sapiens (Human))
- Experimental Protocol: SAE HTRF enzyme assay
- Assay type: biochemical
- Test Parameters: Concentration 0.111 μM
Assay Endpoint: Percent Inhibition
In your answer, state the number alone without any accompanying words.

Q. Recorded Percent Inhibition for N[C@@H](c1cccc(Br)n1)c1cc(C(=O)c2cncnc2N[C@@H]2C[C@H](COS(N)(=O)=O)[C@@H](O)C2)sc1Cl (single isomer, unassigned) [I-18a] , please?
A. 82

Q. Look up Percent Inhibition for this compound: C[C@@](O)(c1cccc(Br)c1)c1csc(C(=O)c2cncnc2N[C@@H]2C[C@H](COS(N)(=O)=O)[C@@H](O)C2)c1.C[C@](O)(c1cccc(Br)c1)c1csc(C(=O)c2cncnc2N[C@@H]2C[C@H](COS(N)(=O)=O)[C@@H](O)C2)c1 (mixture of isomers)
A. 100

Q. Which Percent Inhibition is listed for NS(=O)(=O)OC[C@H]1C[C@@H](Nc2ncncc2C(=O)c2cc([C@H](O)c3cccc(Cl)c3)cs2)C[C@@H]1O (mixture of isomers) [I-4] ?
A. 99

Q. For NS(=O)(=O)OC[C@H]1C[C@@H](Nc2ncncc2C(=O)c2cc(Cc3cccc(Cl)c3)c([C@@H]3CCCO3)s2)C[C@@H]1O (single isomer, unassigned) [I-41a] , what is its reported Percent Inhibition?
A. 98

Q. Percent Inhibition for NS(=O)(=O)OC[C@H]1C[C@@H](Nc2ncncc2C(=O)c2cc(C3SCCc4ccc(Cl)cc43)cs2)[C@H](O)[C@@H]1O (single isomer, unassigned) [I-278b] ?
A. 99

* * *

- Target Or Test System: recombinant human SAE enzyme (Homo sapiens (Human), UniProt Q9UBT2)
- Sequence (Q9UBT2 whole entry): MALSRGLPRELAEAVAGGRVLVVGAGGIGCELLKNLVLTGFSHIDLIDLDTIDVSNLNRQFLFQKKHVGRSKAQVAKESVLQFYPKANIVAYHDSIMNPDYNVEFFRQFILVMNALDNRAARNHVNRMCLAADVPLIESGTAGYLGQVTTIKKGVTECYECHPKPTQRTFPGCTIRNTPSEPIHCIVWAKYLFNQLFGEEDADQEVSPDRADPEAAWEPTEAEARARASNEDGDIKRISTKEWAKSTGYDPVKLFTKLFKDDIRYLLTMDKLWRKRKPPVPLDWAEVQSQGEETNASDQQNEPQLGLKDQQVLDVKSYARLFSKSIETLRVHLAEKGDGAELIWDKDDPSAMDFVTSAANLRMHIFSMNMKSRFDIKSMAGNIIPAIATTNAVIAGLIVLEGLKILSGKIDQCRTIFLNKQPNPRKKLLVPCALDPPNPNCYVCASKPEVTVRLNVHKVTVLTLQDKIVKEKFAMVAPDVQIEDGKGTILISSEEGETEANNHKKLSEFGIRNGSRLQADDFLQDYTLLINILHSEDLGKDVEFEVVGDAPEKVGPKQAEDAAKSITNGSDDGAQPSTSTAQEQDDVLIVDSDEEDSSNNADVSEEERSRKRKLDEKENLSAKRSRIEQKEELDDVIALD
- Sequence (Q9UBE0 whole entry partner): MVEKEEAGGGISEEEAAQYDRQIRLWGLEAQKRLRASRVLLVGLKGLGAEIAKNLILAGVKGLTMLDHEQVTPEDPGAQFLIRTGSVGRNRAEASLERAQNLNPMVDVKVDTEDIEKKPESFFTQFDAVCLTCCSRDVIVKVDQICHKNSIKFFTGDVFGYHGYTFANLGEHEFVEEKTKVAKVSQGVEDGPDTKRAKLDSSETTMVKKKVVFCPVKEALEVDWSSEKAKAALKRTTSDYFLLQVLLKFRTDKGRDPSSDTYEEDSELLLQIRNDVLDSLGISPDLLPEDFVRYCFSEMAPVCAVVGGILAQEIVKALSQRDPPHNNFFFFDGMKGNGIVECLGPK
- Experimental Protocol: SAE HTRF enzyme assay
- Format: biochemical
- Test Parameters: class symbols A/B/C
Assay Endpoint: IC50

Q. # get_value(readout='IC50', item= Cc1sc(C(=O)c2cncnc2N[C@@H]2C[C@H](COS(N)(=O)=O)[C@@H](O)[C@@H]2F)cc1[C@H]1OCCc2ccc(Cl)cc21 (mixture of isomers) [I-264] )
A. < 10 nM

Q. Could you share which IC50 value was measured for N[C@H](c1cccc(Br)c1)c1cc(C(=O)c2cncnc2N[C@@H]2C[C@H](COS(N)(=O)=O)[C@@H](O)C2)sc1Cl (single isomer, unassigned) [I-22a] ?
A. 10 to 100 nM

Q. Which IC50 is listed for NS(=O)(=O)OC[C@H]1C[C@@H](Nc2nc(Cl)ncc2C(=O)c2ccc(-c3ccccc3)o2)[C@H](O)[C@@H]1O [I-236] ?
A. 100 to 1000 nM

* * *

- Target Or Test System: recombinant human SAE enzyme (Homo sapiens (Human))
- Experimental Protocol: SAE HTRF enzyme assay
- Type: biochemical
- Test Parameters: class symbols A/B/C
Assay Endpoint: IC50

Q. Given the entry Cc1ccn(Cc2csc(C(=O)c3cncnc3N[C@@H]3C[C@H](COS(N)(=O)=O)[C@@H](O)C3)c2)c1 , report its measured IC50.
A. 10 to 100 nM

Q. IC50 lookup needed for C#Cc1ccc2c(c1)[C@H](c1cc(C(=O)c3cncnc3N[C@@H]3C[C@H](COS(N)(=O)=O)[C@@H](O)C3)sc1C)OCC2 (single isomer, unassigned) [I-252a] , thanks.
A. 10 to 100 nM

Q. Any idea what IC50 was measured for N[C@@H](c1cccc(Cl)c1)c1cc(C(=O)c2cncnc2N[C@@H]2C[C@H](COS(N)(=O)=O)[C@@H](O)[C@H]2O)sc1Cl (single isomer, unassigned) [I-14a] ?
A. < 10 nM

Q. // query IC50 value for entry NS(=O)(=O)OC[C@H]1C[C@@H](Nc2ncncc2C(=O)c2cc([C@H](O)c3cc(Br)ccc3F)cs2)C[C@@H]1O (single isomer, unassigned) [I-19a]
A. < 10 nM

Q. Look up IC50 for this compound: Cc1cccc(Cc2cc(C(=O)c3cncnc3N[C@@H]3C[C@H](COS(N)(=O)=O)[C@@H](O)C3)sc2C)c1
A. < 10 nM

Q. Query (compound): CC(=O)c1cc(C(=O)c2cncnc2N[C@@H]2C[C@H](COS(N)(=O)=O)[C@@H](O)C2)sc1Cl ; field requested: IC50
A. 100 to 1000 nM

Q. What value of IC50 has been reported for the following compound? CC(O)(c1cccc(Cl)c1)c1csc(C(=O)c2cncnc2NC2CC(O)C(COS(N)(=O)=O)C2)c1 (mixture of isomers)
A. < 10 nM

Q. Consider the compound shown here: NS(=O)(=O)OC[C@H]1C[C@@H](Nc2ncncc2C(=O)c2cc(CN3CCc4sccc4C3)cs2)C[C@@H]1O What is its recorded IC50?
A. 10 to 100 nM

Q. Look up IC50: NS(=O)(=O)OC[C@H]1C[C@@H](Nc2ncncc2C(=O)c2cc(C(=O)c3ccccc3)co2)C[C@@H]1O
A. 100 to 1000 nM

Q. So what's the measured IC50 for this one? NS(=O)(=O)OC[C@H]1C[C@@H](Nc2ncncc2C(=O)c2cc(C(O)c3cccc(Cl)n3)cs2)C[C@@H]1O (single isomer, unassigned) [I-29a]
A. < 10 nM

Q. Query (compound): NS(=O)(=O)OC[C@H]1C[C@@H](Nc2ncncc2C(=O)c2cc(Cn3ccc4ccc(Cl)cc43)cs2)C[C@@H]1O ; field requested: IC50
A. < 10 nM

Q. Find the recorded IC50 belonging to NS(=O)(=O)OC[C@H]1C[C@@H](Nc2ncncc2C(=O)c2cc([C@@H]3NCCc4ccc(Cl)nc43)c(Cl)s2)C[C@@H]1O.NS(=O)(=O)OC[C@H]1C[C@@H](Nc2ncncc2C(=O)c2cc([C@H]3NCCc4ccc(Cl)nc43)c(Cl)s2)C[C@@H]1O (mixture of isomers) and report it.
A. < 10 nM

* * *

- Target Or Test System: recombinant human SAE enzyme (Homo sapiens (Human), UniProt Q9UBT2)
- Experimental Protocol: SAE HTRF enzyme assay
- Assay type: biochemical
- Test Parameters: SAE inhibition at compound concentration 0.111 μM
- Description: Example 215: SAE HTRF enzyme assay The SAE enzymatic reaction totals 50 μl and contains 50 mM HEPES Hemisodium (pH 7.5), 0.05% BSA, 5 mM MgCl2, 0.5 μM ATP, 250 μM GSH, 0.01 μM Ubc9-GST, 0.125 μM Sumo-Flag and 0.11 nM recombinant human SAE enzyme. […] After incubation for 2 hours at 24° C., quantification of FRET is performed on the Pherostar™ (BMG Labtech). Percentage inhibition values at a single concentration or enzyme inhibition (IC50) values are determined from those curves. […]
Exercise: state measured Percent Inhibition for each of the molecules provided.
State just the number; it will be interpreted in %.

Q. Notebook entry, recombinant human SAE enzyme (Homo sapiens (Human), UniProt Q9UBT2) assay: Percent Inhibition of Cc1sc(C(=O)c2cncnc2N[C@@H]2C[C@H](COS(N)(=O)=O)[C@@H](O)C2)nc1[C@H](O)c1cccc(Cl)c1 (single isomer, unassigned) [I-355a] = ?
A. 98

Q. Record Cc1cn2c(n1)[C@H](c1cc(C(=O)c3cncnc3N[C@@H]3C[C@H](COS(N)(=O)=O)[C@@H](O)C3)sc1C)OCC2 (mixture of isomers) : what is its Percent Inhibition with recombinant human SAE enzyme (Homo sapiens (Human), UniProt Q9UBT2)?
A. 98

Q. Recall the recorded Percent Inhibition for Cc1sc(C(=O)c2cncnc2N[C@@H]2C[C@H](COS(N)(=O)=O)[C@@H](O)C2)nc1C1OCCc2ccc(Cl)cc21 (single isomer, unassigned) [I-300b] with recombinant human SAE enzyme (Homo sapiens (Human), UniProt Q9UBT2) and state it.
A. 101

Q. Checklist item: Percent Inhibition tested on recombinant human SAE enzyme (Homo sapiens (Human), UniProt Q9UBT2), entry Cc1sc(C(=O)c2cncnc2N[C@@H]2C[C@H](COS(N)(=O)=O)[C@@H](O)C2)cc1[C@H]1NCCc2ccccc21 (single isomer, unassigned) [I-292a] , value?
A. 99

Q. Provide value of Percent Inhibition for this record tested with recombinant human SAE enzyme (Homo sapiens (Human), UniProt Q9UBT2): Cc1ccc2c(c1)[C@H](c1cc(C(=O)c3cncnc3N[C@@H]3C[C@H](COS(N)(=O)=O)[C@@H](O)C3)sc1C)OCC2 (mixture of isomers)
A. 97

* * *

Provide the recorded Percent Inhibition for the entries that follow.
- Target Or Test System: recombinant human SAE enzyme (Homo sapiens (Human), UniProt Q9UBT2)
- Experimental Protocol: SAE HTRF enzyme assay
- Type: biochemical
- Test Parameters: SAE inhibition at compound concentration 0.111 μM

Q. Please give the measured Percent Inhibition for this compound: NS(=O)(=O)OC[C@H]1C[C@@H](Nc2ncncc2C(=O)c2cc([C@@H]3OCC4(CC4)c4ccccc43)cs2)C[C@@H]1O (single isomer, unassigned) [I-281b]
A. 99%

Q. # lookup: Percent Inhibition of NS(=O)(=O)OC[C@H]1C[C@@H](Nc2ncncc2C(=O)c2ccc([C@@H]3OCCc4c(Cl)cccc43)s2)C[C@@H]1O (mixture of isomers)
A. 60%

Q. Reported Percent Inhibition, compound NS(=O)(=O)OC[C@H]1C[C@@H](Nc2ncncc2C(=O)c2cc([C@@H]3OCCc4c(Cl)cccc43)cs2)C[C@@H]1O (single isomer, unassigned) [I-301b] : ____
A. 100%

Q. Give its Percent Inhibition value. Item: Cc1sc(C(=O)c2cncnc2N[C@@H]2C[C@H](COS(N)(=O)=O)[C@@H](O)C2)cc1[C@@H]1OCCc2ccc(C(F)(F)F)nc21.Cc1sc(C(=O)c2cncnc2N[C@@H]2C[C@H](COS(N)(=O)=O)[C@@H](O)C2)cc1[C@H]1OCCc2ccc(C(F)(F)F)nc21 (mixture of isomers)
A. 96%

Q. Look up Percent Inhibition for this compound: NS(=O)(=O)OC[C@H]1C[C@@H](Nc2ncncc2C(=O)c2cc([C@@H]3NCCc4ccccc43)cs2)C[C@@H]1O (single isomer, unassigned) [I-283a]
A. 99%

Q. Request the reported Percent Inhibition associated with CN1CCc2ccc(Cl)cc2[C@H]1c1csc(C(=O)c2cncnc2N[C@@H]2C[C@H](COS(N)(=O)=O)[C@@H](O)C2)c1 (mixture of isomers)
A. 95%

Q. Look up Percent Inhibition for this compound: CC[C@H](C)[C@H](N)C(=O)O[C@H]1C[C@H](Nc2ncncc2C(=O)c2cc([C@@H]3OCCc4ccc(Cl)cc43)c(C)s2)C[C@@H]1COS(N)(=O)=O.Cl
A. 57%

Q. May I ask what Percent Inhibition has been recorded for Cc1nc2n(c1C)CCO[C@@H]2c1cc(C(=O)c2cncnc2N[C@@H]2C[C@H](COS(N)(=O)=O)[C@@H](O)C2)sc1C (single isomer, unassigned) [I-356a] ?
A. 52%

Q. Value lookup for Percent Inhibition; key = Cc1nc2n(c1C)CCO[C@@H]2c1cc(C(=O)c2cncnc2N[C@@H]2C[C@H](COS(N)(=O)=O)[C@@H](O)C2)sc1C (single isomer, unassigned) [I-356b]
A. 99%

Q. Given the compound NS(=O)(=O)OC[C@H]1C[C@@H](Nc2ncncc2C(=O)c2cc([C@@H]3OCCc4ccc(Cl)cc43)c(Cl)s2)C[C@@H]1O (single isomer, unassigned) [I-282a] , what is its reported Percent Inhibition?
A. 37%

Q. Tell me the measured Percent Inhibition of NS(=O)(=O)OC[C@H]1C[C@@H](Nc2ncncc2C(=O)c2cc([C@@H]3NCCCc4ccccc43)c(Cl)s2)C[C@@H]1O (mixture of isomers) , please.
A. 94%

Q. Entry NS(=O)(=O)OC[C@H]1C[C@@H](Nc2ncncc2C(=O)c2cc([C@@H]3OCCc4cnc(Cl)cc43)c(Cl)s2)C[C@@H]1O (mixture of isomers) : reported Percent Inhibition = ?
A. 90%

Q. So what's the measured Percent Inhibition for this one? COc1ccc2c(c1)[C@H](c1cc(C(=O)c3cncnc3N[C@@H]3C[C@H](COS(N)(=O)=O)[C@@H](O)C3)sc1C)OCC2 (mixture of isomers)
A. 10%

Q. Which Percent Inhibition value belongs to Cc1sc(C(=O)c2cncnc2N[C@@H]2C[C@H](COS(N)(=O)=O)[C@@H](O)C2)cc1[C@@H]1OCCc2ccc(Cl)c(F)c21 (mixture of isomers) ?
A. 99%

Q. Which measured Percent Inhibition value corresponds to COc1ccc2c(n1)[C@H](c1cc(C(=O)c3cncnc3N[C@@H]3C[C@H](COS(N)(=O)=O)[C@@H](O)C3)sc1C)OCC2 (mixture of isomers) [I-339] ?
A. 99%

Q. Which Percent Inhibition value belongs to Cc1ccc2c(n1)C(c1cc(C(=O)c3cncnc3N[C@@H]3C[C@H](COS(N)(=O)=O)[C@@H](O)C3)sc1C)OCC2 (single isomer, unassigned) [I-291a] ?
A. 17%

Q. Can you share its Percent Inhibition? I mean this compound: NS(=O)(=O)OC[C@H]1C[C@@H](Nc2ncncc2C(=O)c2cc([C@@H]3OCC(F)(F)c4ccc(Cl)cc43)cs2)C[C@@H]1O (single isomer, unassigned) [I-289a]
A. 16%

Q. Fill in: Percent Inhibition of NS(=O)(=O)OC[C@H]1C[C@@H](Nc2ncncc2C(=O)c2cc([C@@H]3CCc4ccc(Cl)cc43)cs2)C[C@@H]1O (single isomer, unassigned) [I-349a] is ___
A. 42%

Q. Given the entry NS(=O)(=O)OC[C@H]1C[C@@H](Nc2ncncc2C(=O)c2cc([C@@H]3OCC(=O)c4ccccc43)cs2)C[C@@H]1O (mixture of isomers) , report its measured Percent Inhibition.
A. 93%

Q. Report Percent Inhibition for NS(=O)(=O)OC[C@H]1C[C@@H](Nc2ncncc2C(=O)c2cc([C@@H]3CCc4ccc(Cl)cc43)cs2)C[C@@H]1O (mixture of isomers) [I-349] please.
A. 42%

Q. Recorded Percent Inhibition for NS(=O)(=O)OC[C@H]1C[C@@H](Nc2ncncc2C(=O)c2cc([C@@H]3OCCc4cc(F)c(F)cc43)c(Cl)s2)C[C@@H]1O (single isomer, unassigned) [I-290b] , please?
A. 97%
